Target: T1, A1 protein (mouse, residues 1-152, P104K C113S, used as wild type) (mouse)
T1 sequence (Q07440 1-152 with P104K C113S, looked up): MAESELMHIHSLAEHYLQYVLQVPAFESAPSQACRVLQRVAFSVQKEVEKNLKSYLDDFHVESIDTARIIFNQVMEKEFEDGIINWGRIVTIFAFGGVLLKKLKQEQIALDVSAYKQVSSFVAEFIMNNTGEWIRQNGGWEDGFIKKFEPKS
Test: fluorescence dissociation kinetics with competitor; dissociation; preformed complex of TAMRA-labelled peptide and partner protein mixed with excess unlabeled PUMA peptide as competitor; stopped-flow or Cary Eclipse spectrophotometer; 25 °C; 50 mM sodium phosphate, 0.05% (v/v) Tween 20, pH …
Where no end group is shown, it is not given here. The star is where a group is joined. TAMRA = 5-carboxytetramethylrhodamine, CN(C)c1ccc2c(-c3ccc(C(=O)*)cc3C(=O)[O-])c3ccc(=[N+](C)C)cc-3oc2c1
measured_quantity: koff (s⁻¹)

Worked examples follow.
binder	numeric_result
{TAMRA}-SESQEEIIHNAARHLAQIGDEADHNIQPTLVRQLA (peptide, UniProt P70444 76-110, looked up, BID, mouse, residues 76-110, UniProt P70444; source: synthetic peptide (Biomatik)) [BID I86A-M97A peptide, TAMRA-labelled]	0.11
{TAMRA}-RVEEEEWAREIGAQLRRAADDLNAQYEARRQEEQH [PUMA R154A peptide (on the M144A wild type), TAMRA-labelled]	0.00054
{TAMRA}-SESQEEIIHNIAAHLAQIGDEMDHNIQPTLVRQLA (peptide, UniProt P70444 76-110, looked up, BID, mouse, residues 76-110, UniProt P70444; source: synthetic peptide (Biomatik)) [BID R88A peptide, TAMRA-labelled]	0.00088

I. {TAMRA}-RVEEEEWAREIGAQARRAADDLNAQYERRRQEEQH [PUMA L141A peptide (on the M144A wild type), TAMRA-labelled]
II. {TAMRA}-RVEEEEWAREIGAQLRRAADDANAQYERRRQEEQH [PUMA L148A peptide (on the M144A wild type), TAMRA-labelled]
III. {TAMRA}-SESQEEIIHNIARHLAQIGDEMDHNIQPTLVRQLA (BID, mouse, residues 76-110, UniProt P70444; also called WT; source: synthetic peptide (Biomatik)) [BID peptide (mouse, residues 76-110), TAMRA-labelled]
Ask | Please list these binders in decreasing order of koff. Use the labels to give the requested order.
Reply | I, II, III
